Target: T1, Bbc1, P47068
T1 sequence (P47068 1-78, looked up): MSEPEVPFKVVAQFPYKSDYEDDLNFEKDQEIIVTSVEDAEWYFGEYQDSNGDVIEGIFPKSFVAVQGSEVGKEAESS
Assay: SPOT array
Details: median of control spots 796
recorded_endpoint: SPOT intensity
The reply should be a number, written without any unit.

| binder | number |
| --- | --- |
| VPKEPAPAPPPEPDM | 0 |

**Query** Given the binder `TKFRISLGLPVGAIM` , what is its reported SPOT intensity?
**Result** 43

**Query** Given the binder `QQNRPLPQLPNRNNR` , what is its reported SPOT intensity?
**Result** 40

**Query** Given the binder `PLQSKIPMLPSRRTM` , what is its reported SPOT intensity?
**Result** 29

**Query** Given the binder `LASNSPPVYPKRIRH` , what is its reported SPOT intensity?
**Result** 4

**Query** Given the binder `DAPASKPSVPPRNYF` , what is its reported SPOT intensity?
**Result** 6

**Query** Given the binder `STKKPRPPVKSKPKH` , what is its reported SPOT intensity?
**Result** 3
